experiment: Activity of cytochrome P450 in human liver microsomes assessed as N-desalkylquetiapine sulfoxide formation measured as high-affinity/low-capacity binding constant by LC-MS analysis; format: ADME
parameter_measured: Km

>>> df
                      smiles_notation  parameter_measured  result
0  c1ccc2c(c1)N=C(N1CCNCC1)c1ccccc1S2                  Km   15 µM

---

test: Activity of cytochrome P450 in human liver microsomes assessed as N-desalkylquetiapine sulfoxide formation measured as low-affinity/high-capacity binding constant by LC-MS analysis; type: ADME
parameter_measured: Km (µM)

In [3]: df
Out[3]:
                      smiles_notation  measured_number
0  c1ccc2c(c1)N=C(N1CCNCC1)c1ccccc1S2              459

---

assay: Activity of cytochrome P450 in human liver microsomes assessed as metabolite M3 formation by LC-MS analysis; assay type: ADME
parameter_measured: Km (µM)

In [3]: df
Out[3]:
                      smiles_notation  measured_number
0  c1ccc2c(c1)N=C(N1CCNCC1)c1ccccc1S2              199

---

molecular target: CYP3A4 (Homo sapiens); assay: Activity of human CYP3A4 expressed in xenosomes assessed as substrate depletion after 60 mins by LC-MS analysis; type: ADME; settings: recombinant CYP3A4 expressed in xenosomes, read-out: Drug metabolism
Sequence (P08684 whole entry): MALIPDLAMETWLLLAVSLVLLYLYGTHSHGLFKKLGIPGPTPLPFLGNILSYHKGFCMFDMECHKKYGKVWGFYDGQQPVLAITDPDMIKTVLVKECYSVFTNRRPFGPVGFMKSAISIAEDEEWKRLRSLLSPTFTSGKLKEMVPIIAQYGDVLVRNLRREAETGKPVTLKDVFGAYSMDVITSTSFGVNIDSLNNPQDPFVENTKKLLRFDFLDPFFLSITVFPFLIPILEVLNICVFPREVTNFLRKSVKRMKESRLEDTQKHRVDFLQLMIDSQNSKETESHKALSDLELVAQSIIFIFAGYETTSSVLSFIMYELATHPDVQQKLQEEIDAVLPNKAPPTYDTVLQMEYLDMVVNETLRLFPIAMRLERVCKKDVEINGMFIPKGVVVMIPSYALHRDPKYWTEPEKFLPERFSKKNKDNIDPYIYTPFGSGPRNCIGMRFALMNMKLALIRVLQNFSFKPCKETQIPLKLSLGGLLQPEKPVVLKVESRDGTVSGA
parameter_measured: metabolised at 1 h (%)

>>> print(df.to_string())
                      smiles_notation  measured_number
0  c1ccc2c(c1)N=C(N1CCNCC1)c1ccccc1S2                6
